Assay overview: circular dichroism
Test context: PBS (10 mM phosphate, 137 mM NaCl, 2.7 mM KCl); pH 7.4; rt °C; 100 uM
Bridge positions count the residues as written; N and C are the ends. Square brackets hold non-standard residues; d marks the D form. Triazole bridges read from a SMILES are 1,4-linked. Peptide text beside a SMILES is read from it. Lys(N3) = [N-]=[N+]=NCCCC[C@H](N)C(=O)O; Orn(N3) = [N-]=[N+]=NCCC[C@H](N)C(=O)O; Pra = C#CC[C@H](N)C(=O)O
Kindly state helicity for each of the entries shown.
Answers are plain numbers, in %.

• CC(=O)N[C@@H](CO)C(=O)N[C@@H](Cc1c[nH]c2ccccc12)C(=O)N[C@@H](CCCNC(=N)N)C(=O)N[C@@H](CCC(N)=O)C(=O)N[C@@H](C)C(=O)N[C@@H]1Cc2cn(nn2)CCCC[C@@H](C(=O)N[C@@H](Cc2ccc(O)cc2)C(N)=O)NC(=O)[C@H](CC(=O)O)NC(=O)[C@H](C(C)C)NC(=O)[C@H](Cc2ccccc2)NC1=O = 7

Provide the reported helicity of each entry below, same order.
1. CC(=O)N[C@H]1Cc2cn(nn2)CCC[C@@H](C(=O)N[C@@H](C)C(=O)N[C@@H](Cc2ccccc2)C(=O)N[C@H](C(=O)N[C@@H](CC(=O)O)C(=O)N[C@@H](CO)C(=O)N[C@@H](Cc2ccc(O)cc2)C(N)=O)C(C)C)NC(=O)[C@H](CCC(N)=O)NC(=O)[C@H](CCCNC(=N)N)NC(=O)[C@H](Cc2c[nH]c3ccccc23)NC1=O (Ac-[Pra]WRQ[Orn(N3)]AFVDSY-NH2; triazole 1-5)
2. CC(=O)N[C@@H](CO)C(=O)N[C@@H](Cc1c[nH]c2ccccc12)C(=O)N[C@@H](CCCNC(=N)N)C(=O)N[C@@H](CCC(N)=O)C(=O)N[C@@H](C)C(=O)N[C@@H](C)C(=O)N[C@@H](Cc1ccccc1)C(=O)N[C@H]1Cc2cn(nn2)CCC[C@@H](C(N)=O)NC(=O)[C@H](Cc2ccc(O)cc2)NC(=O)[C@H](CO)NC(=O)[C@H](CC(=O)O)NC1=O (Ac-SWRQAAF[Pra]DSY[Orn(N3)]-NH2; triazole 8-12)
3. CC(=O)N[C@@H](CO)C(=O)N[C@@H](Cc1c[nH]c2ccccc12)C(=O)N[C@@H](CCCNC(=N)N)C(=O)N[C@@H](CCC(N)=O)C(=O)N[C@@H](C)C(=O)N[C@@H](C)C(=O)N[C@@H](Cc1ccccc1)C(=O)N[C@H]1Cc2cn(nn2)CCCC[C@@H](C(N)=O)NC(=O)[C@H](Cc2ccc(O)cc2)NC(=O)[C@H](CO)NC(=O)[C@H](CC(=O)O)NC1=O (Ac-SWRQAAF[Pra]DSY[Lys(N3)]-NH2; triazole 8-12)
4. CC(=O)N[C@@H](CO)C(=O)N[C@@H](Cc1c[nH]c2ccccc12)C(=O)N[C@@H](CCCNC(=N)N)C(=O)N[C@@H](CCC(N)=O)C(=O)N[C@@H](C)C(=O)N[C@H]1Cc2cn(nn2)CCC[C@@H](C(=O)N[C@@H](Cc2ccc(O)cc2)C(N)=O)NC(=O)[C@H](CC(=O)O)NC(=O)[C@H](C(C)C)NC(=O)[C@H](Cc2ccccc2)NC1=O (Ac-SWRQA[Pra]FVD[Orn(N3)]Y-NH2; triazole 6-10)
5. CC(=O)N[C@@H](CO)C(=O)N[C@@H](Cc1c[nH]c2ccccc12)C(=O)N[C@@H](CCCNC(=N)N)C(=O)N[C@@H](CCC(N)=O)C(=O)N[C@@H](C)C(=O)N[C@@H](C)C(=O)N[C@H]1Cc2cn(nn2)CCCC[C@@H](C(N)=O)NC(=O)[C@H](CO)NC(=O)[C@H](CC(=O)O)NC(=O)[C@H](C(C)C)NC1=O (Ac-SWRQAA[Pra]VDS[Lys(N3)]-NH2; triazole 7-11)
6. CC(=O)N[C@H]1CCCCn2cc(nn2)C[C@@H](C(=O)N[C@@H](C)C(=O)N[C@@H](Cc2ccccc2)C(=O)N[C@H](C(=O)N[C@@H](CC(=O)O)C(=O)N[C@@H](CO)C(=O)N[C@@H](Cc2ccc(O)cc2)C(N)=O)C(C)C)NC(=O)[C@H](CCC(N)=O)NC(=O)[C@H](CCCNC(=N)N)NC(=O)[C@H](Cc2c[nH]c3ccccc23)NC1=O (Ac-[Lys(N3)]WRQ[Pra]AFVDSY-NH2; triazole 1-5)

14
12
30
17
37
20
